experimentalDetails: Equilibrium solubility by HPLC, Form C, ambient temperature
Assay type: physicochemical
testSettings: sodium lauryl sulfate solution, 0.82 M (100× CMC), aqueous with cosolvent or surfactant or cyclodextrin, thermodynamic from solid, Sodium Lauryl Sulfate; 0.82M (100× cmc); read-out: Solubility by HPLC
readoutName: solubility

Requested read-out: solubility. Entry: CC(=O)N1CCc2c(C(=O)N3CCC(c4ccc(F)c(F)c4C(F)(F)F)CC3)n[nH]c2C1 [Compound 1]
> 10000 µg/mL

----------
experimentalDetails: Equilibrium solubility by HPLC, Form C, ambient temperature
Assay type: physicochemical
testSettings: Captex 300, EP/NF, oil or lipid, thermodynamic from solid, Captex 300, EP/NF; read-out: Solubility by HPLC
readoutName: solubility

Requested read-out: solubility. Entry: CC(=O)N1CCc2c(C(=O)N3CCC(c4ccc(F)c(F)c4C(F)(F)F)CC3)n[nH]c2C1 [Compound 1]
64 µg/mL

The reported measurements were obtained from patent US11951100B2.
